Reference for the values: ChEMBL document CHEMBL6074631

System: Enterococcus faecalis
Measurement Notes: Antibacterial activity against penicillin-susceptible Enterococcus faecalis ATCC29212 assessed as reduction in bacterial growth by broth microdilution assay
Assay type: functional
Recorded Endpoint: MIC (µg/mL)

compound="CCN(CC)CCCNCCCOc1ccc(/C=C/C(=O)c2c(OC)c3c(c4c2OC(C)(CCC=C(C)C)C=C4)OC(C)(CCC=C(C)C)C=C3)cc1 (configuration not stated)" recorded_endpoint=MIC qualifier_symbol== readout_number=32
compound="CC(=O)c1c(OCC(=O)NCCN(C)C)c2c(c3c1OC(C)(CCC=C(C)C)C=C3)OC(C)(CCC=C(C)C)C=C2 (configuration not stated)" recorded_endpoint=MIC qualifier_symbol== readout_number=1
compound="COc1c2c(c3c(c1C(=O)/C=C/c1ccc(OCCCN4CCOCC4)cc1)OC(C)(CCC=C(C)C)C=C3)OC(C)(CCC=C(C)C)C=C2 (configuration not stated)" recorded_endpoint=MIC qualifier_symbol=> readout_number=128
compound="CCCCN(CCCC)CCCNC(=O)COc1c2c(c3c(c1C(C)=O)OC(C)(CCC=C(C)C)C=C3)OC(C)(CCC=C(C)C)C=C2 (configuration not stated)" recorded_endpoint=MIC qualifier_symbol== readout_number=4
compound="CC(=O)c1c(OCC(=O)NCCCN2CCN(C)CC2)c2c(c3c1OC(C)(CCC=C(C)C)C=C3)OC(C)(CCC=C(C)C)C=C2 (configuration not stated)" recorded_endpoint=MIC qualifier_symbol== readout_number=0.5
compound="COc1c2c(c3c(c1C(=O)/C=C/c1ccc(OCCCNCCCN4CCN(C)CC4)cc1)OC(C)(CCC=C(C)C)C=C3)OC(C)(CCC=C(C)C)C=C2 (configuration not stated)" recorded_endpoint=MIC qualifier_symbol== readout_number=8
compound="CC(=O)c1c(OCC(=O)N(C)CCCN(C)C)c2c(c3c1OC(C)(CCC=C(C)C)C=C3)OC(C)(CCC=C(C)C)C=C2 (configuration not stated)" recorded_endpoint=MIC qualifier_symbol== readout_number=2

###

Here the recorded MIC is given for each entry.
Tested on: Staphylococcus aureus
Measurement Notes: Antibacterial activity against […] Staphylococcus aureus ATCC43300 assessed as reduction in bacterial growth by broth microdilution assay
Format: functional
Recorded Endpoint: MIC

compound="COc1c2c(c3c(c1C(=O)/C=C/c1ccc(OCCC[N+](C)(C)CCCN)cc1)OC(C)(CCC=C(C)C)C=C3)OC(C)(CCC=C(C)C)C=C2 (stereo not drawn)" result="32 µg/mL"
compound="CCCCN(CCCC)CCCNC(=O)COc1c2c(c3c(c1C(C)=O)OC(C)(CCC=C(C)C)C=C3)OC(C)(CCC=C(C)C)C=C2 (stereo not drawn)" result="8 µg/mL"
compound="COc1c2c(c3c(c1C(=O)/C=C/c1ccc(OCCCN(C)CCCN(C)C)cc1)OC(C)(CCC=C(C)C)C=C3)OC(C)(CCC=C(C)C)C=C2 (stereo not drawn)" result="> 128 µg/mL"

###

Here the recorded MIC is given for each entry.
Test system: Staphylococcus epidermidis
Measurement Notes: Antibacterial activity against vancomycin-susceptible Staphylococcus epidermidis ATCC12228 assessed as reduction in bacterial growth by broth microdilution assay
Type: functional
Recorded Endpoint: MIC (µg/mL)

molecule="CCNCCCOc1ccc(/C=C/C(=O)c2c(OC)c3c(c4c2OC(C)(CCC=C(C)C)C=C4)OC(C)(CCC=C(C)C)C=C3)cc1 (configuration not stated)" qualifier_symbol=> readout_number=128
molecule="COc1c2c(c3c(c1C(=O)/C=C/c1ccc(OCCCN(CCCN(C)C)CCCN(C)C)cc1)OC(C)(CCC=C(C)C)C=C3)OC(C)(CCC=C(C)C)C=C2 (configuration not stated)" qualifier_symbol== readout_number=2
molecule="CC(=O)c1c(OCC(=O)NCCCN2CCCC2)c2c(c3c1OC(C)(CCC=C(C)C)C=C3)OC(C)(CCC=C(C)C)C=C2 (configuration not stated)" qualifier_symbol== readout_number=8
molecule="CNCCN(C)C(=O)COc1c2c(c3c(c1C(C)=O)OC(C)(CCC=C(C)C)C=C3)OC(C)(CCC=C(C)C)C=C2 (configuration not stated)" qualifier_symbol== readout_number=4
molecule="CC[N+](CC)(CC)CCCOc1ccc(/C=C/C(=O)c2c(OC)c3c(c4c2OC(C)(CCC=C(C)C)C=C4)OC(C)(CCC=C(C)C)C=C3)cc1 (configuration not stated)" qualifier_symbol== readout_number=4
molecule="CCCCN(CCCC)CCCNC(=O)COc1c2c(c3c(c1C(C)=O)OC(C)(CCC=C(C)C)C=C3)OC(C)(CCC=C(C)C)C=C2 (configuration not stated)" qualifier_symbol== readout_number=4
molecule="COc1c2c(c3c(c1C(=O)/C=C/c1ccc(OCCC[N+](C)(C)CCCN(C)C)cc1)OC(C)(CCC=C(C)C)C=C3)OC(C)(CCC=C(C)C)C=C2 (configuration not stated)" qualifier_symbol== readout_number=2
molecule="CC(=O)c1c(OCC(=O)NCCCN2CCN(C)CC2)c2c(c3c1OC(C)(CCC=C(C)C)C=C3)OC(C)(CCC=C(C)C)C=C2 (configuration not stated)" qualifier_symbol== readout_number=1
molecule="CC(=O)c1c(OCC(=O)NCCN(C)C)c2c(c3c1OC(C)(CCC=C(C)C)C=C3)OC(C)(CCC=C(C)C)C=C2 (configuration not stated)" qualifier_symbol== readout_number=1
molecule="COc1c2c(c3c(c1C(=O)/C=C/c1ccc(OCCCN4CCSCC4)cc1)OC(C)(CCC=C(C)C)C=C3)OC(C)(CCC=C(C)C)C=C2 (configuration not stated)" qualifier_symbol=> readout_number=128
molecule="COc1c2c(c3c(c1C(=O)/C=C/c1ccc(OCCCN4CCOCC4)cc1)OC(C)(CCC=C(C)C)C=C3)OC(C)(CCC=C(C)C)C=C2 (configuration not stated)" qualifier_symbol=> readout_number=128
molecule="CC(=O)c1c(OCC(=O)N(C)CCCN(C)C)c2c(c3c1OC(C)(CCC=C(C)C)C=C3)OC(C)(CCC=C(C)C)C=C2 (configuration not stated)" qualifier_symbol== readout_number=2

###

Test system: Bacillus subtilis
Measurement Notes: Antibacterial activity against […] Bacillus subtilis ATCC9372 assessed as reduction in bacterial growth by broth microdilution assay
Type: functional
Here the recorded MIC is given for each entry.
Recorded Endpoint: MIC

compound="COc1c2c(c3c(c1C(=O)/C=C/c1ccc(OCCCN4CCSCC4)cc1)OC(C)(CCC=C(C)C)C=C3)OC(C)(CCC=C(C)C)C=C2 (stereo not drawn)" result="> 128 µg/mL"
compound="COc1c2c(c3c(c1C(=O)/C=C/c1ccc(OCCCN(C)CCCN(C)C)cc1)OC(C)(CCC=C(C)C)C=C3)OC(C)(CCC=C(C)C)C=C2 (stereo not drawn)" result="> 128 µg/mL"
compound="COc1c2c(c3c(c1C(=O)/C=C/c1ccc(OCCCN4CCOCC4)cc1)OC(C)(CCC=C(C)C)C=C3)OC(C)(CCC=C(C)C)C=C2 (stereo not drawn)" result="> 128 µg/mL"
